Reported values: MIC for Xanthomonas maltophilia JCM1975, one per item.
OBSERVED PROPERTY: MIC (µg/mL)

>>> measured_value("Cc1cc2c(c3oc(C4(C)OC4C)cc(=O)c13)C(=O)c1c(ccc(C3CC(C)(N(C)C)C(O)C(C)O3)c1O)C2=O (centres unmarked) [Deacetyl HP530E]")
25
>>> measured_value("CC=CC1OC1(C)c1cc(=O)c2c(C)cc3c(c2o1)C(=O)c1c(ccc(C2CC(C)(N(C)C)C(OC(C)=O)C(C)O2)c1O)C3=O (centres unmarked) [HP530D]")
3.2
>>> measured_value("CC=CC1OC1(C)c1cc(=O)c2c(C)cc3c(c2o1)C(=O)c1c(ccc(C2CC(C)(N(C)C)C(O)C(C)O2)c1O)C3=O (centres unmarked) [Deacetyl HP530D]")
50

From: patent US5168100A
